system: N-methyl-D-aspartate receptor
assayRemarks: Inhibition of the NMDA receptor (Eurofins Panlabs Taiwan)
measurementParameters: conducted by Eurofins Panlabs Taiwan
pIC50: −log10 of the molar value.

[
  {
    "compound": "CC(C)OC(=O)CCNC1(c2ccc(OC(F)(F)F)cc2)CCCCC1=O (stereo not shown) [19a]",
    "valuePrefix": "=",
    "pIC50": 3.50
  },
  {
    "compound": "CC(C)OC(=O)CCNC1(c2cccs2)CCCCC1=O (stereo not shown) [20a]",
    "valuePrefix": "=",
    "pIC50": 3.80
  },
  {
    "compound": "CC(C)OC(=O)CCNC1(c2cccc(Cl)c2)CCCCC1=O (stereo not shown) [10a]",
    "valuePrefix": "=",
    "pIC50": 3.79
  },
  {
    "compound": "CC(C)OC(=O)CCNC1(c2ccccc2C(F)(F)F)CCCCC1=O (stereo not shown)",
    "valuePrefix": "=",
    "pIC50": 3.54
  },
  {
    "compound": "COC(=O)CCCCNC1(c2ccc(OC)cc2)CCCCC1=O (stereo not shown) [17b]",
    "valuePrefix": "=",
    "pIC50": 4.03
  },
  {
    "compound": "CC(C)OC(=O)CCNC1(c2ccccc2Cl)CCCCC1=O (stereo not shown)",
    "valuePrefix": "=",
    "pIC50": 3.87
  },
  {
    "compound": "COC(=O)CCCCNC1(c2ccccc2F)CCCCC1=O (stereo not shown)",
    "valuePrefix": "=",
    "pIC50": 5.51
  },
  {
    "compound": "COC(=O)CCCCNC1(c2ccccc2OC)CCCCC1=O (stereo not shown)",
    "valuePrefix": "<",
    "pIC50": 3.00
  },
  {
    "compound": "CC(C)OC(=O)CCNC1(c2ccccc2OC(F)(F)F)CCCCC1=O (stereo not shown)",
    "valuePrefix": "=",
    "pIC50": 3.74
  },
  {
    "compound": "COC(=O)CCCCNC1(c2cccc(C)c2)CCCCC1=O (stereo not shown) [11b]",
    "valuePrefix": "=",
    "pIC50": 5.28
  },
  {
    "compound": "CNC1(c2ccccc2Cl)CCCCC1=O (stereo not shown)",
    "valuePrefix": "=",
    "pIC50": 6.15
  },
  {
    "compound": "COc1ccc(C2(NCCC(=O)OC(C)C)CCCCC2=O)cc1 (stereo not shown) [17a]",
    "valuePrefix": "=",
    "pIC50": 3.40
  },
  {
    "compound": "COC(=O)CCCCNC1(c2ccccc2C)CCCCC1=O (stereo not shown)",
    "valuePrefix": "=",
    "pIC50": 5.47
  },
  {
    "compound": "CC(C)OC(=O)CCNC1(c2cccc(OC(F)(F)F)c2)CCCCC1=O (stereo not shown) [14a]",
    "valuePrefix": "=",
    "pIC50": 3.68
  },
  {
    "compound": "COC(=O)CCCCNC1(c2ccccc2C(F)(F)F)CCCCC1=O (stereo not shown)",
    "valuePrefix": "=",
    "pIC50": 3.89
  },
  {
    "compound": "CC(C)OC(=O)CCNC1(c2cccc(C(F)(F)F)c2)CCCCC1=O (stereo not shown) [13a]",
    "valuePrefix": "=",
    "pIC50": 3.64
  },
  {
    "compound": "CC(C)OC(=O)CCNC1(c2ccccc2F)CCCCC1=O (stereo not shown)",
    "valuePrefix": "=",
    "pIC50": 3.60
  },
  {
    "compound": "COC(=O)CCCCNC1(c2ccc(OC(F)(F)F)cc2)CCCCC1=O (stereo not shown) [19b]",
    "valuePrefix": "=",
    "pIC50": 3.22
  },
  {
    "compound": "COC(=O)CCCCNC1(c2ccccc2OC(F)(F)F)CCCCC1=O (stereo not shown)",
    "valuePrefix": "=",
    "pIC50": 3.92
  },
  {
    "compound": "CC(C)OC(=O)CCNC1(c2ccc(Cl)cc2)CCCCC1=O (stereo not shown) [15a]",
    "valuePrefix": "=",
    "pIC50": 3.89
  },
  {
    "compound": "COC(=O)CCCCNC1(c2cccc(OC)c2)CCCCC1=O (stereo not shown) [12b]",
    "valuePrefix": "=",
    "pIC50": 5.25
  },
  {
    "compound": "COc1ccccc1C1(NCCC(=O)OC(C)C)CCCCC1=O (stereo not shown)",
    "valuePrefix": "=",
    "pIC50": 3.76
  }
]
